# MIC per entry
system: Staphylococcus epidermidis; assay: Antibacterial activity against methicillin-sensitive Staphylococcus epidermidis 01-1005 by broth microdilution method; assay type: functional
Outcome measure: MIC (µg/mL)

- CC[C@H]1OC(=O)[C@H](C)[C@@H](O[C@H]2C[C@@](C)(OC)[C@@H](O)[C@H](C)O2)[C@H](C)[C@@H](O[C@@H]2O[C@H](C)C[C@H](N(C)C)[C@H]2O)[C@](C)(OC)C[C@@H](C)C(=O)[C@H](C)[C@@H](O)[C@]1(C)O: 0.125
- C=CCO[C@@H]1C[C@@H](C)C(=O)[C@H](C)[C@H]2OC(=O)O[C@]2(C)[C@@H](CC)OC(=O)[C@H](C)[C@@H](OC(=O)COc2ccccc2)[C@H](C)[C@H]1OC1O[C@H](C)C[C@H](N(C)C)[C@H]1O (some centres undefined): 8
- C=CCO[C@@H]1C[C@@H](C)C(=O)[C@H](C)[C@H]2OC(=O)O[C@]2(C)[C@@H](CC)OC(=O)[C@H](C)[C@@H](OC(=O)CCc2c[nH]c3ccccc23)[C@H](C)[C@H]1O[C@@H]1O[C@H](C)C[C@H](N(C)C)[C@H]1O: 32
- C=CCO[C@@H]1C[C@@H](C)C(=O)[C@H](C)[C@H]2OC(=O)O[C@]2(C)[C@@H](CC)OC(=O)[C@H](C)[C@@H](OC(=O)Cc2cccc(F)c2)[C@H](C)[C@H]1O[C@@H]1O[C@H](C)C[C@H](N(C)C)[C@H]1O: 1

* * *

tested on: Staphylococcus epidermidis; assay: Antibacterial activity against methicillin-sensitive Staphylococcus epidermidis 01-1004 by broth microdilution method; type: functional
Outcome measure: MIC (µg/mL)

* CC[C@H]1OC(=O)[C@H](C)[C@@H](O[C@H]2C[C@@](C)(OC)[C@@H](O)[C@H](C)O2)[C@H](C)[C@@H](O[C@@H]2O[C@H](C)C[C@H](N(C)C)[C@H]2O)[C@](C)(OC)C[C@@H](C)C(=O)[C@H](C)[C@@H](O)[C@]1(C)O | 0.125
* C=CCO[C@@H]1C[C@@H](C)C(=O)[C@H](C)[C@H]2OC(=O)O[C@]2(C)[C@@H](CC)OC(=O)[C@H](C)[C@@H](OC(=O)Cc2ccc3c(c2)OCO3)[C@H](C)[C@H]1O[C@@H]1O[C@H](C)C[C@H](N(C)C)[C@H]1O | 0.5
* C=CCO[C@@H]1C[C@@H](C)C(=O)[C@H](C)[C@H]2OC(=O)O[C@]2(C)[C@@H](CC)OC(=O)[C@H](C)[C@@H](OC(=O)Cc2ccccc2Cl)[C@H](C)[C@H]1OC1O[C@H](C)C[C@H](N(C)C)[C@H]1O (stereo partly drawn) | 1

* * *

test system: Staphylococcus epidermidis; test: Antibacterial activity against methicillin-sensitive Staphylococcus epidermidis 01-1004 by broth microdilution method; assay type: functional
# MIC per entry
Outcome measure: MIC (µg/mL)

- C=CCO[C@@H]1C[C@@H](C)C(=O)[C@H](C)[C@H]2OC(=O)O[C@]2(C)[C@@H](CC)OC(=O)[C@H](C)[C@@H](OC(=O)CCc2c[nH]c3ccccc23)[C@H](C)[C@H]1O[C@@H]1O[C@H](C)C[C@H](N(C)C)[C@H]1O: 32
- C=CCO[C@@H]1C[C@@H](C)C(=O)[C@H](C)[C@H]2OC(=O)O[C@]2(C)[C@@H](CC)OC(=O)[C@H](C)[C@@H](OC(=O)Cc2cccc(F)c2)[C@H](C)[C@H]1O[C@@H]1O[C@H](C)C[C@H](N(C)C)[C@H]1O: 1

* * *

tested on: Staphylococcus aureus; assay: Antibacterial activity against methicillin-sensitive Staphylococcus aureus 01-430 by broth microdilution method; format: functional
Outcome measure: MIC (µg/mL)

* C=CCO[C@@H]1C[C@@H](C)C(=O)[C@H](C)[C@H]2OC(=O)O[C@]2(C)[C@@H](CC)OC(=O)[C@H](C)[C@@H](OC(=O)Cc2c[nH]c3ccccc23)[C@H](C)C1O[C@@H]1O[C@H](C)C[C@H](N(C)C)[C@H]1O (stereo partly drawn) | 8
* C=CCO[C@@H]1C[C@@H](C)C(=O)[C@H](C)[C@H]2OC(=O)O[C@]2(C)[C@@H](CC)OC(=O)[C@H](C)[C@@H](OC(=O)Cc2cccc(F)c2)[C@H](C)[C@H]1O[C@@H]1O[C@H](C)C[C@H](N(C)C)[C@H]1O | 1
* C=CCO[C@@H]1C[C@@H](C)C(=O)[C@H](C)[C@H]2OC(=O)O[C@]2(C)[C@@H](CC)OC(=O)[C@H](C)[C@@H](OC(=O)Cc2ccccc2Cl)[C@H](C)[C@H]1OC1O[C@H](C)C[C@H](N(C)C)[C@H]1O (stereo partly drawn) | 1

* * *

system: Staphylococcus epidermidis; experiment: Antibacterial activity against methicillin-sensitive Staphylococcus epidermidis 01-1004 by broth microdilution method; format: functional
Outcome measure: MIC (mg/L)

* C=CCO[C@@H]1C[C@@H](C)C(=O)[C@H](C)[C@H]2OC(=O)O[C@]2(C)[C@@H](CC)OC(=O)[C@H](C)[C@@H](OC(=O)Cc2cccnc2)[C@H](C)[C@H]1O[C@@H]1O[C@H](C)C[C@H](N(C)C)[C@H]1O | 0.5
* C=CCO[C@@H]1C[C@@H](C)C(=O)[C@H](C)[C@H]2OC(=O)O[C@]2(C)[C@@H](CC)OC(=O)[C@H](C)[C@@H](OC(=O)Cc2c[nH]c3ccccc23)[C@H](C)C1O[C@@H]1O[C@H](C)C[C@H](N(C)C)[C@H]1O (some centres not stated) | 4

* * *

test system: Staphylococcus aureus; assay: Antibacterial activity against methicillin-resistant Staphylococcus aureus 01-429 by broth microdilution method; format: functional
# MIC per entry
Outcome measure: MIC (µg/mL)

• C=CCO[C@@H]1C[C@@H](C)C(=O)[C@H](C)[C@H]2OC(=O)O[C@]2(C)[C@@H](CC)OC(=O)[C@H](C)[C@@H](OC(=O)Cc2ccc(Cl)cc2)[C@H](C)[C@H]1OC1O[C@H](C)C[C@H](N(C)C)[C@H]1O (stereo not given in full) = 16
• CC[C@H]1OC(=O)[C@H](C)[C@@H](O[C@H]2C[C@@](C)(OC)[C@@H](O)[C@H](C)O2)[C@H](C)[C@@H](O[C@@H]2O[C@H](C)C[C@H](N(C)C)[C@H]2O)[C@](C)(OC)C[C@@H](C)C(=O)[C@H](C)[C@@H](O)[C@]1(C)O = 256
• C=CCO[C@@H]1C[C@@H](C)C(=O)[C@H](C)[C@H]2OC(=O)O[C@]2(C)[C@@H](CC)OC(=O)[C@H](C)[C@@H](OC(=O)Cc2cccnc2)[C@H](C)[C@H]1O[C@@H]1O[C@H](C)C[C@H](N(C)C)[C@H]1O = 32
• C=CCO[C@@H]1C[C@@H](C)C(=O)[C@H](C)[C@H]2OC(=O)O[C@]2(C)[C@@H](CC)OC(=O)[C@H](C)[C@@H](OC(=O)COc2ccccc2)[C@H](C)[C@H]1OC1O[C@H](C)C[C@H](N(C)C)[C@H]1O (stereo not given in full) = 32
• C=CCO[C@@H]1C[C@@H](C)C(=O)[C@H](C)[C@H]2OC(=O)O[C@]2(C)[C@@H](CC)OC(=O)[C@H](C)[C@@H](OC(=O)Cc2ccccc2Cl)[C@H](C)[C@H]1OC1O[C@H](C)C[C@H](N(C)C)[C@H]1O (stereo not given in full) = 16

* * *

tested on: Staphylococcus aureus; experiment: Antibacterial activity against methicillin-sensitive Staphylococcus aureus 01-431 by broth microdilution method; format: functional
Outcome measure: MIC (µg/mL)

* C=CCO[C@@H]1C[C@@H](C)C(=O)[C@H](C)[C@H]2OC(=O)O[C@]2(C)[C@@H](CC)OC(=O)[C@H](C)[C@@H](OC(=O)CCc2c[nH]c3ccccc23)[C@H](C)[C@H]1O[C@@H]1O[C@H](C)C[C@H](N(C)C)[C@H]1O | 32
* C=CCO[C@@H]1C[C@@H](C)C(=O)[C@H](C)[C@H]2OC(=O)O[C@]2(C)[C@@H](CC)OC(=O)[C@H](C)[C@@H](OC(=O)COc2ccccc2)[C@H](C)[C@H]1OC1O[C@H](C)C[C@H](N(C)C)[C@H]1O (some centres undefined) | 16
* C=CCO[C@@H]1C[C@@H](C)C(=O)[C@H](C)[C@H]2OC(=O)O[C@]2(C)[C@@H](CC)OC(=O)[C@H](C)[C@@H](OC(=O)Cc2ccc(Cl)cc2)[C@H](C)[C@H]1OC1O[C@H](C)C[C@H](N(C)C)[C@H]1O (some centres undefined) | 4
* C=CCO[C@@H]1C[C@@H](C)C(=O)[C@H](C)[C@H]2OC(=O)O[C@]2(C)[C@@H](CC)OC(=O)[C@H](C)[C@@H](OC(=O)Cc2c[nH]c3ccccc23)[C@H](C)C1O[C@@H]1O[C@H](C)C[C@H](N(C)C)[C@H]1O (some centres undefined) | 8

FYI, the data here is from ChEMBL document CHEMBL1148023.
